Test system: CCRF-CEM
TEST_DESCRIPTION: Cytostatic activity against human CEM cells after 3 days by coulter counter analysis
Assay type: functional, cell-based
CONDITION_INFO: 72 h
Consider the following compounds and their measured IC50 readings.
MEASURED_ATTRIBUTE: IC50 (nM)

{"CHEMICAL_STRING": "O=C(CCCCCCCCCCF)Nc1ccn([C@@H]2O[C@H](CO)[C@@H](O)C2(F)F)c(=O)n1", "READOUT_UNIT": "nM", "MEASURED_RESULT": 59}
{"CHEMICAL_STRING": "C=CCCCCCCCCCNc1ccn([C@@H]2O[C@H](CO)[C@@H](O)C2(F)F)c(=O)n1", "READOUT_UNIT": "nM", "MEASURED_RESULT": 13000}
{"CHEMICAL_STRING": "CCCC(CCC)C(=O)Nc1ccn([C@@H]2O[C@H](CO)[C@@H](O)C2(F)F)c(=O)n1", "READOUT_UNIT": "nM", "MEASURED_RESULT": 5200}
{"CHEMICAL_STRING": "O=C(CCCCCCCCCCO)Nc1ccn([C@@H]2O[C@H](CO)[C@@H](O)C2(F)F)c(=O)n1", "READOUT_UNIT": "nM", "MEASURED_RESULT": 240}
{"CHEMICAL_STRING": "CCCCCCCCCCC(=O)Nc1ccn([C@@H]2O[C@H](CO)[C@@H](O)C2(F)F)c(=O)n1", "READOUT_UNIT": "nM", "MEASURED_RESULT": 60}
{"CHEMICAL_STRING": "O=c1nc(NCCCCCCCCCCCF)ccn1[C@@H]1O[C@H](CO)[C@@H](O)C1(F)F", "READOUT_UNIT": "nM", "MEASURED_RESULT": 28000}
{"CHEMICAL_STRING": "Nc1ccn([C@@H]2O[C@H](CO)[C@@H](O)C2(F)F)c(=O)n1", "READOUT_UNIT": "nM", "MEASURED_RESULT": 69}
{"CHEMICAL_STRING": "C=CCCCCCCCCC(=O)Nc1ccn([C@@H]2O[C@H](CO)[C@@H](O)C2(F)F)c(=O)n1", "READOUT_UNIT": "nM", "MEASURED_RESULT": 71}
{"CHEMICAL_STRING": "O=c1nc(NCCCCCCCCCCCO)ccn1[C@@H]1O[C@H](CO)[C@@H](O)C1(F)F", "READOUT_UNIT": "nM", "MEASURED_RESULT": 86000}
{"CHEMICAL_STRING": "C=CCCCCCCC(=O)Nc1ccn([C@@H]2O[C@H](CO)[C@@H](O)C2(F)F)c(=O)n1", "READOUT_UNIT": "nM", "MEASURED_RESULT": 140}
{"CHEMICAL_STRING": "C=CCCCCCCCCCCC(=O)Nc1ccn([C@@H]2O[C@H](CO)[C@@H](O)C2(F)F)c(=O)n1", "READOUT_UNIT": "nM", "MEASURED_RESULT": 69}
